Value source: ChEMBL document CHEMBL1123400

# System: P388
# Assay Summary: In vitro inhibitory effect on growth of P388 leukemia cells
# Type: functional
# Condition Set: Mus musculus, read-out: ID50 (the source's name)
Please go through the items and note down their pIC50.
Formally, pIC50 is defined as -log10 of the concentration c, with c in mol/L.

Any idea what its pIC50 is? The compound is NC(=O)c1[nH]nc(C2O[C@H](COP(=O)(O)O)[C@H](O)[C@@H]2O)c1O (some centres undefined)
9.00

Any idea what its pIC50 is? The compound is N#CC1NN=C([C@@H]2O[C@H](CO)[C@@H](O)[C@H]2O)C1=O (some centres undefined)
4.35

Any idea what its pIC50 is? The compound is CCOP(=O)(O)OC[C@H]1O[C@@H](C2=NNC(C(N)=O)C2=O)[C@H](O)[C@@H]1O (some centres undefined)
8.49

Any idea what its pIC50 is? The compound is NC(=O)c1[nH]nc(C2OC3COP(=O)(O)O[C@@H]3[C@@H]2O)c1O (some centres undefined)
5.36

Any idea what its pIC50 is? The compound is COP(=O)(OC)OC[C@H]1O[C@@H](C2=NNC(C(N)=O)C2=O)[C@H](O)[C@@H]1O (some centres undefined)
7.92

Any idea what its pIC50 is? The compound is COc1c([C@@H]2O[C@H](CO)[C@@H](O)[C@H]2O)n[nH]c1C(N)=O
4.40

Any idea what its pIC50 is? The compound is NC(=O)c1[nH]nc([C@@H]2O[C@H](CO)[C@@H](O)[C@H]2O)c1OCc1ccccc1
4.21
